# test target: Collagenase 3 (Homo sapiens, UniProt P45452)
# protocol: Inhibition of MMP13 in human U2OS cells at 5 umol/L by peptide microarray-based fluorescence assay
# Type: cell-based
# condition set: dose 5.0 µmol/L
quantity: inhibition

Please go through the list and note inhibition for each compound.
1. COc1ccc(-c2cc(=O)c3c(OC)c(OC)c(OC)cc3o2)cc1OC
2. O=C(/C=C/c1ccc(O)cc1)c1ccc(O)cc1O
3. O=C1C[C@@H](c2ccc(O)cc2)Oc2cc(O)ccc21
4. O=C(O)[C@H]1O[C@@H](Oc2cc3oc(-c4ccc(O)cc4)cc(=O)c3c(O)c2O)[C@H](O)[C@@H](O)[C@@H]1O
5. COc1cc(C2Oc3ccc([C@H]4Oc5cc(O)cc(O)c5C(=O)[C@@H]4O)cc3OC2CO)ccc1O (stereo not given in full)

**A:**
1. > 50%
2. > 50%
3. > 50%
4. > 50%
5. > 50%

All figures here come from ChEMBL document CHEMBL5126637.
